Listed below: Relative KD values for each entry.
# system under test: T1, recombinant ILT2 (human) (human, UniProt Q8NHL6 24-461)
# T1 construct: also called recombinant ILT2 peptide; ILT2 protein
# T1 sequence (Q8NHL6 24-461 limits assumed): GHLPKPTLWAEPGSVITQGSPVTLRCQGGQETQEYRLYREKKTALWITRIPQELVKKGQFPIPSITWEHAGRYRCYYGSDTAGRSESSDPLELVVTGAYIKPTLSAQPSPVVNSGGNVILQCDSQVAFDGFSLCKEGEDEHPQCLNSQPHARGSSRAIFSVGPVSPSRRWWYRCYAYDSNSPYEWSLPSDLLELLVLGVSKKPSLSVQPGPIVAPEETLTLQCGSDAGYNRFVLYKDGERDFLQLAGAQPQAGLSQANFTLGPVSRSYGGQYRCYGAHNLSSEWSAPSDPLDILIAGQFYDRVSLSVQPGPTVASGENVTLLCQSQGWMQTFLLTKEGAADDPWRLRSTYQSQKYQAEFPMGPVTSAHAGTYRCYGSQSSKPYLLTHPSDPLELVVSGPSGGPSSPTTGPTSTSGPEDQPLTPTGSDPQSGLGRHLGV
# protocol text: SPR (Biacore T200); KD relative to Control (chimeric 15G8)
The response must contain the number and no unit.

Before answering, review these 5 worked examples.
binder | Relative KD
humanized 15G8 VH5/Vk2 (antibody, IgG4, V domains shown, Humanized IgG4 (S228P, L235E), kappa; tested as supernatant of transiently transfected HEK EBNA cells) VH: QVQLQGSGPGLVKPSETLSLTCTVTGYSITSGYYWNWIRQPPGKGLEWIGYISYDGSNNYNPSLKNRVTISRDTSKNQFSLKLSSVTAADTATYYCAHGYSYYYAMDAWGQGTTVTVSS VL: DIQMTQSPSSLSASVGDRVTITCRTSQDISNYLNWYQQKPGKAVKLLISYTSRLHSGVPSRFSGSGSGTDYTLTISSLQPEDFATYFCQQGNTLPTFGQGTKLEIK | 0.6
15G8-32 (humanized 15G8, VH3/Vk2) (antibody, human IgG4 S228P, kappa, V domains shown, Humanized IgG4 (S228P, L235E), kappa) VH: DVQLQGSGPGLVKPSETLSLTCSVTGYSITSGYYWNWIRQPPGKGLEWMGYISYDGSNNYNPSLKNRITISRDTSKNQFSLKLSSVTAADTATYYCAHGYSYYYAMDAWGQGTTVTVSS VL: DIQMTQSPSSLSASVGDRVTITCRTSQDISNYLNWYQQKPGKAVKLLISYTSRLHSGVPSRFSGSGSGTDYTLTISSLQPEDFATYFCQQGNTLPTFGQGTKLEIKR | 0.65
15G8-23 (humanized 15G8, VH2/Vk3) (antibody, human IgG4 S228P, kappa, V domains shown, Humanized IgG4 (S228P, L235E), kappa) VH: DVQLQGSGPGLVKPSETLSLTCSVTGYSITSGYYWNWIRQFPGKKLEWMGYISYDGSNNYNPSLKNRITISRDTSKNQFSLKLSSVTAADTATYYCAHGYSYYYAMDAWGQGTTVTVSS VL: DIQMTQSPSSLSASVGDRVTITCRTSQDISNYLNWYQQKPGKAVKLLISYTSRLHSGVPSRFSGSGSGTDYTLTISSLQPEDFATYYCQQGNTLPTFGQGTKLEIKR | 0.66
15G8-44 (humanized 15G8, VH4/Vk4) (antibody, IgG4, V domains shown, Humanized IgG4 (S228P, L235E), kappa) VH: QVQLQGSGPGLVKPSETLSLTCSVTGYSITSGYYWNWIRQPPGKGLEWMGYISYDGSNNYNPSLKNRVTISRDTSKNQFSLKLSSVTAADTATYYCAHGYSYYYAMDAWGQGTTVTVSS VL: DIQMTQSPSSLSASVGDRVTITCRTSQDISNYLNWYQQKPGKAPKLLISYTSRLHSGVPSRFSGSGSGTDYTLTISSLQPEDFATYFCQQGNTLPTFGQGTKLEIK | 1.07
humanized 15G8 VH4/Vk3 (antibody, IgG4, V domains shown, Humanized IgG4 (S228P, L235E), kappa; tested as supernatant of transiently transfected HEK EBNA cells) VH: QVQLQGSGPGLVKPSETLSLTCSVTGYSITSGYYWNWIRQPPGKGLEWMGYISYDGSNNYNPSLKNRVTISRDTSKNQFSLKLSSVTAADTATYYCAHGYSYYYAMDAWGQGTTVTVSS VL: DIQMTQSPSSLSASVGDRVTITCRTSQDISNYLNWYQQKPGKAVKLLISYTSRLHSGVPSRFSGSGSGTDYTLTISSLQPEDFATYYCQQGNTLPTFGQGTKLEIK | 0.75

// query Form field: reported Relative KD of 15G8-34 (humanized 15G8, VH3/Vk4) (antibody, IgG4, V domains shown, Humanized IgG4 (S228P, L235E), kappa) VH: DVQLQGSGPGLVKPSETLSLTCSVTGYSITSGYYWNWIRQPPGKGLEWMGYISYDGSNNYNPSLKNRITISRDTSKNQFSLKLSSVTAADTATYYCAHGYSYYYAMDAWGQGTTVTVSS VL: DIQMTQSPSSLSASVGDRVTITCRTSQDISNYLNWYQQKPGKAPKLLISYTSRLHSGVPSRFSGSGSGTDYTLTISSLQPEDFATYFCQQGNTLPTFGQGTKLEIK
// result 1

// query Form field: reported Relative KD of humanized 15G8 VH1/Vk2 (antibody, IgG4, V domains shown, Humanized IgG4 (S228P, L235E), kappa; tested as supernatant of transiently transfected HEK EBNA cells) VH: DVQLQGSGPGLVKPSETLSLTCSVTGYSITSGYYWNWIRQFPGKKLEWMGYISYDGSNNYNPSLKNRITISRDTSKNQFSLKLNSVTAADTATYYCAHGYSYYYAMDAWGQGTSVTVSS VL: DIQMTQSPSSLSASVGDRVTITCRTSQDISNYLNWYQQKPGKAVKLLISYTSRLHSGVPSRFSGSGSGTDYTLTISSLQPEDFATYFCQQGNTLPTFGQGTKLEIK
// result 0.7

// query Form field: reported Relative KD of humanized 15G8 VH2/Vk4 (antibody, IgG4, V domains shown, Humanized IgG4 (S228P, L235E), kappa; tested as supernatant of transiently transfected HEK EBNA cells) VH: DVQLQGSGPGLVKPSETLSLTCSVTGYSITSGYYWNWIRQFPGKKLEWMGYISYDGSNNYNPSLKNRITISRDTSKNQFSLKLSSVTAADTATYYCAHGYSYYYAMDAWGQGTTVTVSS VL: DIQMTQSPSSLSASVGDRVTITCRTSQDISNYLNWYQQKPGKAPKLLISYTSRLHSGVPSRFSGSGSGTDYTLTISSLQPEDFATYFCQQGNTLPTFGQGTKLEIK
// result 1.13

// query Form field: reported Relative KD of humanized 15G8 VH5/Vk1 (antibody, IgG4, V domains shown, Humanized IgG4 (S228P, L235E), kappa; tested as supernatant of transiently transfected HEK EBNA cells) VH: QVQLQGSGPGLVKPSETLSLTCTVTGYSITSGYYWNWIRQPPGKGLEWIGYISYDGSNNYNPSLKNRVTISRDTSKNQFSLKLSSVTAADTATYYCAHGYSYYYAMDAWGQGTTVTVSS VL: DIQMTQSTSSLSASVGDRVTITCRTSQDISNYLNWYQQKPGKAVKLLISYTSRLHSGVPSRFSGSGSGTDYTLTISSLQQEDFATYFCQQGNTLPTFGQGTKLEIK
// result 0.68

// query Form field: reported Relative KD of humanized 15G8 VH4/Vk1 (antibody, IgG4, V domains shown, Humanized IgG4 (S228P, L235E), kappa; tested as supernatant of transiently transfected HEK EBNA cells) VH: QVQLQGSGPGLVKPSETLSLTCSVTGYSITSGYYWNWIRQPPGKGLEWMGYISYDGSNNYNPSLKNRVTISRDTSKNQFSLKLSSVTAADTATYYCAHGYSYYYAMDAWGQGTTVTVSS VL: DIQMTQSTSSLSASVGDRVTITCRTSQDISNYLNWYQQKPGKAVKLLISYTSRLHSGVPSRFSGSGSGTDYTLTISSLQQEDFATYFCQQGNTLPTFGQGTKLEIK
// result 0.69
